Target: α1A-AR (Rattus norvegicus, UniProt P43140)
Construct: expressed in transfected cells; host or cells: COS-1
Sequence (P43140 whole entry): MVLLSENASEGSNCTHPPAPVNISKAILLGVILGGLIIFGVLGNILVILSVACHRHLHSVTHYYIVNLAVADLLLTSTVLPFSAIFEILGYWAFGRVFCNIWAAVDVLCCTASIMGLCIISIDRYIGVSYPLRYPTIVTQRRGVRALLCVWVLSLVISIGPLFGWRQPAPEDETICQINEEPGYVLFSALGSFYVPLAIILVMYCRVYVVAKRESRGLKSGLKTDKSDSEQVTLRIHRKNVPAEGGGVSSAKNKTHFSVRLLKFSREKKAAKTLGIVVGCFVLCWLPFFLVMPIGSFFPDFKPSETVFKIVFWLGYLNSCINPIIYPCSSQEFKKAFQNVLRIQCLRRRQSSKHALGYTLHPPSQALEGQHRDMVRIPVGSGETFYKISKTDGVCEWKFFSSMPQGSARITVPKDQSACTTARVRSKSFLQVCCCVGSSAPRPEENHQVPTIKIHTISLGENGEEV
Assay: [3H]Prazosin competition/saturation binding on COS-1 membranes expressing α1A-AR
Set-up: species or system rodent
Details: [3H]Prazosin 200 pM, COS-1 membranes; pKi = -Log Ki; read-out: pKi α1A-AR (converted)
quantity.measured: Ki (µM)
Please give a number only; it is taken to be in µM.

| molecule | target.of.assay | reading |
| --- | --- | --- |
| CCN(Cc1ccccc1)CC(O)c1cccc(Cl)c1 (stereo not shown) | α1A-AR (Rattus norvegicus, UniProt P43140) | 12.6 |
| CCCCCCCCN(CCCCCCCC)CC(O)c1ccccc1Cl (stereo not shown) | α1A-AR (Rattus norvegicus, UniProt P43140) | 41.7 |
| COc1cc2c(cc1OC)C1CC(C)=C(c3ccccc3)CN1CC2 (stereo not shown) | α1A-AR (Rattus norvegicus, UniProt P43140) | 1.78 |
| CN(C)c1ccc(CN2CCCN(Cc3ccc(N(C)C)cc3)C2c2cc(Cl)ccc2O)cc1 | α1A-AR (Rattus norvegicus, UniProt P43140) | 23.4 |
| CCCCC(O)CN1CCC(Cc2ccccc2)CC1 (stereo not shown) | α1A-AR (Rattus norvegicus, UniProt P43140) | 4.9 |

Value of Ki reported for the molecule CN(C)CC(C(=O)c1ccc(Br)cc1)C(Br)c1ccccc1 (stereo not shown) is 14.8

// sample CCCCN(Cc1ccc(N(CC)CC)cc1)CC(O)c1ccc(Cl)cc1 (stereo not shown) , its Ki was 30.9

###

pKi values, listed per item
Biological target: α1B-AR (Mesocricetus auratus, UniProt P18841)
Construct: expressed in transfected cells; host or cells: COS-1
Sequence (P18841 1-515): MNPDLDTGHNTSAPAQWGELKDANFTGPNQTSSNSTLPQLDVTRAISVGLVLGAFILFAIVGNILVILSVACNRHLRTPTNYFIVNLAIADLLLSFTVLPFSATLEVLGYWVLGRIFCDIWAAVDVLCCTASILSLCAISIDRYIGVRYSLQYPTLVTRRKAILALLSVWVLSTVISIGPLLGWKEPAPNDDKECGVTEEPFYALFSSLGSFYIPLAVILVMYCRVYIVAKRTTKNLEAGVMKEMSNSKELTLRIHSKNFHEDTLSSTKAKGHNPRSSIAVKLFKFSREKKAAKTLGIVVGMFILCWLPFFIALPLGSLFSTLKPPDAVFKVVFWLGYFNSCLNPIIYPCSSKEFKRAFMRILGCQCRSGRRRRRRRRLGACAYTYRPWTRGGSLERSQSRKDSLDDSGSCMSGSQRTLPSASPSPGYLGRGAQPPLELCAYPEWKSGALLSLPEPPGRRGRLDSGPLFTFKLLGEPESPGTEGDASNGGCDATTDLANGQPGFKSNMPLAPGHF
Experiment: [3H]Prazosin competition/saturation binding on COS-1 membranes expressing α1B-AR
Design: species or system rodent
Conditions: [3H]Prazosin 200 pM, COS-1 membranes; antilog of mean pKi, Cheng-Prusoff; read-out: Ki α1B-AR
Note: pKi values are expressed as the negative base-10 logarithm of concentration in M.

| compound | pKi |
| --- | --- |
| COc1cc2c(cc1OC)C1CC(C)=C(c3ccccc3)CN1CC2 (stereo not drawn) | 4.93 |

Quick note, pKi for "COc1cccc(C=CCN2CCN(c3cccc(C(F)(F)F)c3)CC2)c1" landed at 5.34

Recorded result, Cc1ccc(C)c(N2CCN(CC(O)COC(C)(C)C)CC2)c1 (stereo not drawn) , pKi: 5.85

###

Molecular target: α1D-AR (Rattus norvegicus, UniProt P23944)
Construct: expressed in transfected cells; host or cells: COS-1
Assay: [3H]Prazosin competition/saturation binding on COS-1 membranes expressing α1D-AR
Design: species or system rodent
Details: Ki α1D-AR, [3H]Prazosin 200 pM, antilog of mean pKi, Cheng-Prusoff
quantity.measured: Ki

Consider Cc1ccc(C)c(N2CCN(CC(O)COC(C)(C)C)CC2)c1 (stereo not shown) . Its measured Ki is < 2000 nM

###

Molecular target: α1D-AR (Rattus norvegicus)
Construct: expressed in transfected cells; host or cells: COS-1
Sequence (P23944 1-561): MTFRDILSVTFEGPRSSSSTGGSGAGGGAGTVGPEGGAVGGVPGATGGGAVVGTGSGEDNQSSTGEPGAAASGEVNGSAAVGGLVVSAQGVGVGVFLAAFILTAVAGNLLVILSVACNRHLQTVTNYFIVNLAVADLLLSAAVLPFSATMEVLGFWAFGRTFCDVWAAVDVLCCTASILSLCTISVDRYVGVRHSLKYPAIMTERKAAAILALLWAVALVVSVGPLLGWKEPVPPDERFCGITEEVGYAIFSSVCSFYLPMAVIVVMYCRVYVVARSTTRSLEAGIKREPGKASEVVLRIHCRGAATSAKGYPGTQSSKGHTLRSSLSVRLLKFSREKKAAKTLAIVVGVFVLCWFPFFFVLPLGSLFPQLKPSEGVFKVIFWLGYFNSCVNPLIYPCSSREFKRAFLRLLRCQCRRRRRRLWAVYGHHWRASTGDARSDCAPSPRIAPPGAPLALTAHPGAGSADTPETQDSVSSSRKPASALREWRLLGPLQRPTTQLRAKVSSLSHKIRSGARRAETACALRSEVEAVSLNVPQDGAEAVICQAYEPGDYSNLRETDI
Assay: [3H]Prazosin competition/saturation binding on COS-1 membranes expressing α1D-AR
Design: species or system rodent
Conditions: [3H]Prazosin 200 pM, pKi = -Log Ki, read-out: pKi α1D-AR (converted)
Reported log10 Ki values follow for various molecules
Log scale reminder: Ki in µM, then log10 taken.

Field log10 Ki (entry CN(C)c1ccc(CN2CCCN(Cc3ccc(N(C)C)cc3)C2c2cc(Cl)ccc2O)cc1 [Compound 9] ) reads 1.39

Measured log10 Ki, CCN(Cc1ccccc1)CC(O)c1cccc(Cl)c1 (centres unmarked) [Compound 3] : 0.89

The molecule listed as COc1cccc(C=CCN2CCN(c3cccc(C(F)(F)F)c3)CC2)c1 [Compound 2] shows log10 Ki equal to 1.02

get_value(item= COc1cc2c(cc1OC)C1CC(C)=C(c3ccccc3)CN1CC2 (centres unmarked) [Compound 11] , readout=log10 Ki) returns 0.18

CCCCC(O)CN1CCC(Cc2ccccc2)CC1 (centres unmarked) [Compound 6] yielded log10 Ki of 0.74

Record summary for CN(C)CC(C(=O)c1ccc(Br)cc1)C(Br)c1ccccc1 (centres unmarked) [Compound 7] : reported log10 Ki = 0.99

Summary for this molecule, CCCCN(Cc1ccc(N(CC)CC)cc1)CC(O)c1ccc(Cl)cc1 (centres unmarked) [Compound 12] : log10 Ki is 1.51

Sure, the documented log10 Ki for Cc1ccc(C)c(N2CCN(CC(O)COC(C)(C)C)CC2)c1 (centres unmarked) [Compound 1] is -0.10

###

Molecular target: α1D-AR (Rattus norvegicus)
Construct: expressed in transfected cells; host or cells: COS-1
Experiment: [3H]Prazosin competition/saturation binding on COS-1 membranes expressing α1D-AR
Set-up: species or system rodent
Conditions: [3H]Prazosin 200 pM, antilog of mean pKi, Cheng-Prusoff, read-out: Ki α1D-AR
Protocol: COS-1 cells (American Type Culture Collection, Manassas, VA) were cultured in Dulbecco's modified Eagle's medium (DMEM) supplemented with 10% (v/v) heat inactivated fetal bovine serum (FBS), 100 µg ml^−1 penicillin and 100 µg ml^−1 streptomycin. […] Membranes were prepared as described previously. […] Protein concentration was determined using Bradford reagent (Sigma, St Louis, MO, USA). […]
quantity.measured: Ki

Solved cases below.
| molecule | Ki |
| --- | --- |
| COc1cccc(C=CCN2CCN(c3cccc(C(F)(F)F)c3)CC2)c1 [Compound 2] | 18.8 µM |
| Cc1ccc(C(=O)/C(S)=C(\Nc2cccc(Cl)c2)[n+]2ccccc2)cc1 [Compound 10] | > 100 µM |
| Cc1ccc(C)c(N2CCN(CC(O)COC(C)(C)C)CC2)c1 (centres unmarked) [Compound 1] | 0.83 µM |

Item: CCCCN(Cc1ccc(N(CC)CC)cc1)CC(O)c1ccc(Cl)cc1 (centres unmarked) [Compound 12] | Ki: 62.4 µM

Quick note, Ki for Cc1cccc(CN2CCCN(C(=S)NCCN3CCOCC3)CC2)n1 [Compound 5] landed at > 100 µM

// sample CCN(Cc1ccccc1)CC(O)c1cccc(Cl)c1 (centres unmarked) [Compound 3] , its Ki was 8.35 µM

The reported Ki of the molecule CCCCC(O)CN1CCC(Cc2ccccc2)CC1 (centres unmarked) [Compound 6] was 5.9 µM

Ki measured on CCCCCCCCN(CCCCCCCC)CC(O)c1ccccc1Cl (centres unmarked) [Compound 8] = 48.7 µM

The value of Ki measured for the molecule COc1cc2c(cc1OC)C1CC(C)=C(c3ccccc3)CN1CC2 (centres unmarked) [Compound 11] turned out to be 1.6 µM

Reported Ki of Cc1cc(CN2CCCN(C(=S)Nc3ccccc3C(F)(F)F)CC2)no1 [Compound 4] : > 100 µM

Item: CN(C)c1ccc(CN2CCCN(Cc3ccc(N(C)C)cc3)C2c2cc(Cl)ccc2O)cc1 [Compound 9] | Ki: 36.1 µM

FYI, the data here is from paper PMC3091868.
